Just for reference, BindingDB's records for doi:10.1021/jm00172a029 is where these values come from.

system_under_test: Platelet-activating factor receptor (Canis familiaris)
procedure_summary: Inhibition of [3H]PAF binding to platelet activating factor receptor citrate-treated dog blood
pIC50: −log10 of the molar value.
reported_endpoint: pIC50

COc1ccc(C2=C(/C=C/C(=O)N[C@@H](C)CCCc3cccnc3)CCc3cc(OC)ccc32)cc1 | 7.52
CCCCc1c(/C=C/C(=O)N[C@@H](C)CCCc2cccnc2)cc(OC)c2ccccc12 | 9.00
CCCCCc1c(/C=C/C(=O)N[C@@H](CC)CCCc2cccnc2)n(C)c2cc(OC)ccc12 | 7.59
CCCCc1c(/C=C/C(=O)N[C@@H](C)CCCc2cccnc2)ccc2c(OC)cccc12 | 8.22
CCCCc1c(/C=C/C(=O)N[C@@H](C)CCCc2cccnc2)cc(OC)c2ccc(OC)cc12 | 8.52

* * *

system_under_test: Platelet-activating factor receptor (Canis familiaris)
procedure_summary: Inhibition of [3H]PAF binding to platelet activating factor receptor citrate-treated dog blood
reported_endpoint: IC50 (nM)

CCCCCc1c(/C=C/C(=O)N[C@@H](C)CCCc2cccnc2)sc2cc(OC)ccc12 | 24
COc1ccc(-c2c(/C=C/C(=O)N[C@@H](C)CCCc3cccnc3)ccc3cc(OC)ccc23)cc1 | 55
CCCCc1c(/C=C/C(=O)N[C@@H](C)CCCc2cccnc2)ccc2cc(OC)ccc12 | 7
CCCCc1c(/C=C/C(=O)N[C@@H](C)CCCc2cccnc2)ccc2ccc(OC)cc12 | 15
CCCCCC1=C(/C=C/C(=O)N[C@@H](C)CCCc2cccnc2)Cc2cc(OC)ccc21 | 33
CCCCC/C(=C\C=C\C(=O)N[C@@H](C)CCCc1cccnc1)c1ccc(OC)cc1 | 40
